Every entry's value here was drawn from PubChem BioAssay (NCI).

Tested on: UACC-257 melanoma
RUN_DESCRIPTION: NCI-60 one-dose screen, 48 h (100 = growth as untreated, 0 = no growth, -100 = all killed)
CONDITION_DESCRIPTION: 10 µM unless noted
Protocol: Cells are grown in 96 well plates and exposed to the test compound for 48 hours. Compounds are tested at a single concentration, which is 10^-5 M for most compounds. The reported endpoint is percent growth (GI% or GIPRCNT), where numbers from 0 - 100% represent growth inhibition, and numbers from -100% - 0 represent cell death. For example, a value of 40 represents 60% growth inhibition. A value of 0 means no net growth occurred over the course of the experiment. […]
About 83,000 compounds went through this panel and 20% of them were active in at least one assay; those are over-represented in the sample as a whole.
Field: growth. Provide a value for each of the molecules that follow.
Use % as the unit, but write only the number.

Prompt line: Query: growth; subject: Cn1nc(CC#N)c2c(=N)n(N)cnc21
Response line: 111

Prompt line: Query: growth; subject: COc1ccc2nc(-c3ccc(-c4noc(-c5cc(OC)c(OC)c(OC)c5)n4)cc3)[nH]c2c1
Response line: 102

Prompt line: Query: growth; subject: Nc1ccccc1NC(=O)c1ccc(-n2nc(-c3ccccc3)c3ccccc32)cc1
Response line: 86.2

Prompt line: Query: growth; subject: CC(C)N1C(=O)S/C(=C2/SC(=O)N(C(C)C)C2=O)C1=O
Response line: 99
